target: pooled human IgG
readout.label: Enzyme Activity Endpoint Assay: Fc (ng/µL)

# protein, readout.label, reading
records = [
    ("PRT-546 (protein) MANQEIRYSEETPKTITSVWTKGVTPPTDFIKNEDVLHAPYIANQGWYDITKTFNGKDDLLCGAATAGNMLHWWFDQNKEEIENYLKKHPEKQKINFNGEQMFDVKEAIDTKDSQTDSALFEYFKDKAFPYLSTKHLGVFPDHVIDMFINGYRLSLTNHGPTPVKRGTKDPRGGIFDAVFTRGDQSKLLTSRHDFKEKTLNEISDLIKQELTEGKALGLSHTYANVRINHVINLWGADFNSEGNLEAIYVTDSDSNASIGMKKYYVGVNSAGKVAISAKEIEGDNIGAQVLGLFTLSTGQDIWEQTNLEHHHHHH", "Enzyme Activity Endpoint Assay: Fc", 390),
]

Cited source for all entries: patent US20250027068
